- Tested on: Plasmodium falciparum
- TEST SUMMARY: Antiplasmodial activity against Plasmodium falciparum Dd2 harboring HSP90 mutant
- Assay type: functional, organism-based
Would you kindly list IC50 for each of these molecules?
Supply the numeric figure in nM, leaving out any unit text.

Give IC50 (Plasmodium falciparum) of the following molecule: Cc1nc2c(C#N)cccc2n1-c1ccc(C(=O)NC2CC2)s1
16.2

Hi! What's the reported IC50 for Nc1nc2ccc(OCC(F)(F)F)nc2n1CC(O)c1ccc(C(F)(F)F)cc1Cl (racemic) on Plasmodium falciparum?
34.1

Value wanted: IC50 (Plasmodium falciparum) of entry CN1CCN(C(=O)c2ccc3c(c2)N(Cc2c(F)cccc2Cl)C(=O)c2ccccc2S3)CC1
8.42

What reported IC50 corresponds to C[C@@H]1CC[C@H]2[C@@H](C)C(=O)O[C@@H]3O[C@@]4(C)CC[C@@H]1[C@]32OO4 on Plasmodium falciparum?
1.29

The measured values listed here are drawn from ChEMBL document CHEMBL3286148.
